# ASSAY SYSTEM: Polyunsaturated fatty acid lipoxygenase ALOX12 (Homo sapiens)
# MEASUREMENT NOTES: qHTS Assay for Inhibitors of 12-hLO (12-human lipoxygenase); further: nearly all actives have a fitted effect of over 55% in size; further: potency means the concentration at half of the fitted maximal effect
# STUDY CONDITIONS: purified 12-hLO, xylenol orange hydroperoxide absorbance; series mostly up to 57.1 µM
The whole screen tested about 150,000 compounds, of which about 190 (0.13%) were called active. Roughly 2% stayed inconclusive and do not appear here. Many of the other results were omitted from the sample, so actives are more common in it than they were.
For each record, write down the corresponding Potency.

{"SMILES INPUT": "COc1ccc(-c2nnc(SC(=O)N3c4ccccc4Sc4ccccc43)o2)cc1", "REPORTED MEASUREMENT": "14.1 µM (active)"}
{"SMILES INPUT": "CC(C)Oc1ccc(CCc2n[nH]c(=S)n2Cc2ccccc2)cc1", "REPORTED MEASUREMENT": "31.6 µM (active)"}
{"SMILES INPUT": "COc1cc(NS(=O)(=O)c2ccc(N/C=C(\\C=O)c3nc4cc(Cl)ccc4o3)cc2)nc(OC)n1", "REPORTED MEASUREMENT": "15.8 µM (active)"}
{"SMILES INPUT": "N#C/C=C\\Oc1ccc(Cl)cc1N", "REPORTED MEASUREMENT": "22.4 µM (active)"}
{"SMILES INPUT": "CCOC(=O)C1=C(NC(=S)NC(=O)c2ccccc2)c2ccccc2CC1(C)C", "REPORTED MEASUREMENT": "25.1 µM (active)"}

Attention now shifts to the item below.
Look up and report measured Potency for this entry: `Cc1ccnc(-n2sc3ccccc3c2=O)n1` 12.6 µM (active)

----------
# ASSAY SYSTEM: Polyunsaturated fatty acid lipoxygenase ALOX12 (Homo sapiens)
# MEASUREMENT NOTES: qHTS Assay for Inhibitors of 12-hLO (12-human lipoxygenase); further: nearly all actives have a fitted effect of over 55% in size; on activity change, negative = inhibition: on the % scale 0 is the no-effect control and ±100 the full control effect
# STUDY CONDITIONS: purified 12-hLO, xylenol orange hydroperoxide absorbance; series mostly up to 57.1 µM
Screen size: about 150,000 compounds; about 190 (0.13%) were called active. Not shown: some 2% with an inconclusive outcome. The list comes from a sample in which actives are over-represented; it also holds close analogues and randomly drawn compounds.
METRIC NAME: activity change, negative = inhibition

Known results for compounds:
{"COMPOUND": "CCOC(=O)C1=C(C)c2ccccc2OC1C(=O)OCC (stereo unspecified)", "REPORTED MEASUREMENT": "1.63% [at 0.00818 µM] (inactive)"}
{"COMPOUND": "O=C(COC(=O)[C@H](Cc1ccccc1)NC(=O)c1cccs1)Nc1cc(F)ccc1F", "REPORTED MEASUREMENT": "inactive"}
{"COMPOUND": "CC1=C(C/C=C(\\C)CCCC(C)CCCC(C)CCCC(C)C)C(=O)c2ccccc2C1=O (stereo unspecified)", "REPORTED MEASUREMENT": "-5.67% [at 0.00818 µM] (inactive)"}
{"COMPOUND": "CC(Nc1oc(-c2ccccc2)nc1-c1ccccc1)c1ccccc1 (stereo unspecified)", "REPORTED MEASUREMENT": "inactive"}
{"COMPOUND": "O=C(OC1CCOC1=O)c1cccc(S(=O)(=O)Nc2ccc(F)cc2)c1 (stereo unspecified)", "REPORTED MEASUREMENT": "inactive"}

Now consider a different compound.
Report activity change, negative = inhibition for `Cn1cccc1/C=N/NC(=O)c1ccc(OC(F)(F)C(F)F)cc1` inactive

Values were extracted from PubChem BioAssay AID1452.
